assay-notes: qHTS for Inhibitors of Plasmodium falciparum (GB4) proliferation (AID 504315); also: nearly all actives have a fitted effect of over 50% in size
run-conditions: P. falciparum GB4 in erythrocytes, SYBR Green DNA, 72 h; series mostly up to 6.7 µM
Inconclusive results are not listed. Calls of active or inactive are those of the source. Calls follow the shape of the dose curve; as a rule, active = well fitted inhibition curve with a large enough effect; inconclusive = small, poorly fitted or top-dose-only effect, or effect the other way; inactive = flat fitted curve, though single readings scatter.
Select the matching outcome among true = active, false = inactive

Sample answers from the record:
molecule	qualitative-label
CCOC(=O)C=CCCCC=CC(=O)c1ccccc1	false
CCCCc1nc2c(c3c1C[C@H](C)OC3)CN(C(=O)COC)CC2	false
COCC(=O)N1CCc2nc(-c3ccc(OC)cc3C)c3c(c2C1)CO[C@@H](c1ccccc1)C3	false

Lookup: Assay result, entry `CCCCc1nc2c(c3c1C[C@H](C)OC3)CN(C(=O)N[C@@H](C)c1ccccc1)CC2` — outcome?
Found: false

Lookup: Assay result, entry `CCN1C(=O)N[C@@H](c2cccc(C(F)(F)F)c2)[C@@H](C(=O)OC)[C@H]1C` — outcome?
Found: false

Lookup: Assay result, entry COC(=O)CC1c2ccccc2C=C(C)N1C(=O)OC (stereo not given) — outcome?
Found: false

Lookup: Assay result, entry `C[C@H]1Cc2c(-c3ccccc3)nc3c(c2CO1)CN(C(=O)c1ccco1)CC3` — outcome?
Found: false

Lookup: Assay result, entry `COC(=O)C1=C(C(=O)OC)[C@@H]2N(C)c3ccccc3[C@@]23C[C@@H](CO)N(C(=O)C2CCC2)C3=N1` — outcome?
Found: false

Lookup: Assay result, entry C=CC1=C2C=C(C3CC3)N(CCCCO)C=C2C(=O)C(C)(OC(=O)c2ccco2)C1=O (stereo not given) — outcome?
Found: false

Lookup: Assay result, entry `C[C@H]1Cc2c(COc3ccccc3)nc3c(c2CO1)CN(C(=O)Nc1cccc(C#N)c1)CC3` — outcome?
Found: false

Lookup: Assay result, entry `CC#CCN1c2ccccc2[C@]23C[C@@H](C(=O)OC)N=C2NC(C(=O)OC)=C(C(=O)OC)[C@H]13` — outcome?
Found: false

Lookup: Assay result, entry COC(=O)CCCC1=CC2=C(c3ccccc3)C(=O)C(C)(OC(=O)C3CCCC3)C(=O)C2=CN1C1CC1 (stereo not given) — outcome?
Found: false

Lookup: Assay result, entry `O=C1c2cc(Br)ccc2O[C@@H](c2ccc3c(c2)OCO3)[C@@H]1O` — outcome?
Found: false

Lookup: Assay result, entry COC/C=C/C1=CC2=CC(=O)C(C)(OC(=O)c3cnc4ccccc4n3)C(=O)C2=CN1CCc1ccccn1 (stereo not given) — outcome?
Found: false

Lookup: Assay result, entry `COC(=O)C1=C(C(=O)OC)[C@@H]2Nc3ccccc3[C@@]23C[C@@H](C(=O)OC)N(C(=O)NC2CCCC2)C3=N1` — outcome?
Found: false

Lookup: Assay result, entry COC(=O)CCC(=O)OC1(C)C(=O)C2=CN(CCN3CCOCC3)C(c3ccc(OC)cc3)=CC2=C(Br)C1=O (stereo not given) — outcome?
Found: false

Lookup: Assay result, entry CC1(OC(=O)CCc2ccccc2)C(=O)C=C2C=C(c3ccc(C#N)cc3)N(CCN3CCOCC3)C=C2C1=O (stereo not given) — outcome?
Found: false

Lookup: Assay result, entry COC(=O)CCC(=O)OC1(C)C(=O)C2=CN(Cc3ccc4c(c3)OCO4)C(c3ccc(OC)cc3)=CC2=C(Br)C1=O (stereo not given) — outcome?
Found: false

Lookup: Assay result, entry `CCCCc1nc2c(c3c1C[C@H](C)OC3)CN(C(=O)C1CC1)CC2` — outcome?
Found: false

Lookup: Assay result, entry `COCCN1C(=O)N[C@@H](c2cccs2)C(C(C)=O)=C1C` — outcome?
Found: false

Lookup: Assay result, entry `COC(=O)C1=C(C(=O)OC)[C@@H]2N(C)c3ccc(OC)cc3[C@@]23C[C@@H](C(=O)OC)N(C(=O)c2ccc(Br)cc2)C3=N1` — outcome?
Found: false

Just for reference, PubChem BioAssay (NCATS) is where these values come from.
